EXPERIMENT DESCRIPTION: Clinical pharmacokinetics in plasma after single oral administration of A. paniculata extract
Assay type: in vivo, human
ASSAY CONTEXT: human; parent compound in plasma; healthy subjects n = 4; single oral dose of extract (60 mg andrographolide); mean ± SD

COMPOUND | Cmax [ng/mL]
C=C1CC[C@@H]2[C@](C)(CO)[C@H](O)CC[C@@]2(C)[C@@H]1/C=C/C1=CCOC1=O [AP3, 14-deoxy-11, 12-didehydroandrographolide] | 83.8
C=C1CC[C@@H]2[C@](C)(CO[C@@H]3O[C@H](CO)[C@@H](O)[C@H](O)[C@H]3O)CCC[C@@]2(C)[C@@H]1CCC1=CCOC1=O [AP4, neoandrographolide] | 22.4
C=C1CC[C@@H]2[C@](C)(CO)[C@H](O)CC[C@@]2(C)[C@@H]1CCC1=CCOC1=O [AP6, 14-deoxyandrographolide] | 6.33
C=C1CC[C@@H]2[C@](C)(CO)[C@H](O)CC[C@@]2(C)[C@@H]1C/C=C1/C(=O)OC[C@H]1O [AP1, andrographolide] | 60.9
